assay: growth inhibitors of tim10-1 mutant yeast, primary screen, luminescence, uHTS (AID 463190);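 further: mutant grown at 25 °C; 0% = DMSO wells with yeast and 100% = wells holding no yeast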; settings: S. cerevisiae tim10-1 ts strain growth, BacTiter-Glo, 24 h; at 20 µM
Screen size: about 330,000 compounds; about 7,300 (2.2%) were called active.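 How the source made its calls: active means inhibition of at least 40%; inactive means the rest.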 The sample holds actives, similar compounds and a random draw of the others, so the mix is not that of the screen.
Classes used: active, inactive

[
  {
    "compound": "Cc1ccc(CSCC(N)C(=O)O)cc1 (centres undefined)",
    "group-label": "inactive"
  },
  {
    "compound": "CNC(=O)/C(C#N)=C/c1c(F)cccc1Cl",
    "group-label": "active"
  },
  {
    "compound": "CCCCOc1ccc(C(=O)NCC(=O)OCC(=O)N2CCN(S(=O)(=O)c3ccc(C)cc3C)CC2)cc1",
    "group-label": "inactive"
  },
  {
    "compound": "Cc1ccc(SC(CC(=O)c2ccc(C(C)(C)C)cc2)C(=O)O)cc1 (centres undefined)",
    "group-label": "active"
  }
]

----------
test: growth inhibitors of tim10-1 mutant yeast, primary screen, luminescence, uHTS (AID 463190);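 further: mutant grown at 25 °C; 0% = DMSO wells with yeast and 100% = wells holding no yeast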; conditions: S. cerevisiae tim10-1 ts strain growth, BacTiter-Glo, 24 h; at 20 µM; active compounds read high
Out of some 330,000 compounds screened, about 7,300 (2.2%) were called active. This is one part of a sample in which actives are shown more often than they occur.
The entries below come with measured inhibition values attached.
measure: inhibition (%)

[
  {
    "molecule": "O=C1C(Cc2ccc(O)cc2)NC(=S)N1Cc1ccccc1 (configuration not stated)",
    "measure": "inhibition",
    "readout-units": "%",
    "numeric-readout": -2.4
  },
  {
    "molecule": "Cc1ccc2[nH]c(C)c(CCNC(=O)NC3CCCCC3)c2c1",
    "measure": "inhibition",
    "readout-units": "%",
    "numeric-readout": 11.4
  },
  {
    "molecule": "Cc1nc2ccc(C(=O)N3CCSCC3)cc2s1",
    "measure": "inhibition",
    "readout-units": "%",
    "numeric-readout": 4.92
  },
  {
    "molecule": "S=C(Nc1cccc(Cl)c1)Nc1ccc2c(c1)OCCO2",
    "measure": "inhibition",
    "readout-units": "%",
    "numeric-readout": 32.9
  },
  {
    "molecule": "CN1CN(C)c2ccc([N+](=O)[O-])c3cccc1c23",
    "measure": "inhibition",
    "readout-units": "%",
    "numeric-readout": 9.35
  },
  {
    "molecule": "CN(C)CCCN(Cc1cc2cc3c(cc2[nH]c1=O)OCCO3)C(=O)NC1CCCCC1",
    "measure": "inhibition",
    "readout-units": "%",
    "numeric-readout": 7.7
  },
  {
    "molecule": "c1ccc(-c2nnc3n2NC(c2ccc4c(c2)OCO4)S3)cc1 (configuration not stated)",
    "measure": "inhibition",
    "readout-units": "%",
    "numeric-readout": 51.2
  },
  {
    "molecule": "CCOC(=O)CCCCCC(=O)Nc1ccc2c(c1)CC(=O)N([C@@H](C)CO)C[C@H](C)[C@@H](CN(C)Cc1ccccc1)O2",
    "measure": "inhibition",
    "readout-units": "%",
    "numeric-readout": -5.39
  },
  {
    "molecule": "CN(C)CCCN(C(=O)c1ccc(S(=O)(=O)N2CCCc3ccccc32)cc1)c1nc2ccc(F)cc2s1",
    "measure": "inhibition",
    "readout-units": "%",
    "numeric-readout": 52.8
  },
  {
    "molecule": "N#C/C(=C\\c1ccc(O)c(O)c1)C(=O)NCc1ccccc1",
    "measure": "inhibition",
    "readout-units": "%",
    "numeric-readout": -4.07
  },
  {
    "molecule": "O=Cc1ccc(OCc2cn3ccccc3n2)cc1",
    "measure": "inhibition",
    "readout-units": "%",
    "numeric-readout": -8
  },
  {
    "molecule": "CNC(=O)C1CC(=O)N(Cc2ccc3c(c2)OCO3)C(=Nc2ccc(F)cc2)S1 (configuration not stated)",
    "measure": "inhibition",
    "readout-units": "%",
    "numeric-readout": -3.7
  }
]
